Test system: IGROV1 ovarian
Assay: NCI tumour cell line growth inhibition, 48 h
*1 amine or outer side, *2 acyl side, *3 side chain or, on linkers, in order; H or OH if unused. Where a SMILES comes first, the peptide text is derived from it. Bridges are numbered along the chain shown (N, C = ends). Roman numbers before positions name the chains, in order. [ ]: non-standard residue; d: D form. Actinocin(9to1) = Cc1c2oc3c(C)ccc(C(=O)[*:1])c3nc-2c(C(=O)[*:2])c(N)c1=O; NMeV = CN[CH](C(=O)O)C(C)C; Sar = CNCC(=O)O

# compound, TGI
measured = [
    ("c1ccc(Cc2nc3ccc(Nc4ncnc5ccccc45)cc3[nH]2)cc1", "> 25 µM"),
    ("CCn1c(O)c(C(=O)NC(C)c2ccc([N+](=O)[O-])cc2)c(=O)n(CC)c1=S (configuration not stated)", "11.4 µM"),
    ("OC1(C(O)(c2ccc(-c3ccccc3)cc2)c2ccc(-c3ccccc3)cc2)CCCCC1", "> 100 µM"),
    ("Nc1ccccc1C#C/C=C\\C#Cc1ccccc1C(F)(F)F", "> 55.8 µM"),
    ("COc1ccc(OC)c(-c2cn3c(n2)sc2ccccc23)c1", "> 100 µM"),
    ("CCCC[C@H]1C(=O)O[C@H](C)[C@H](NC(=O)c2cccc(NC=O)c2O)C(=O)O[C@@H](C)[C@@H]1OC(=O)CC(C)C", "41.9 µM"),
    ("Cc1ccc(C(CN(C)C)C(=O)c2ccccc2)cc1 (configuration not stated)", "11.5 µM"),
    ("CCCCNC(=S)Nc1nc(C(=O)NNC(=S)NCc2ccccc2)cs1", "> 100 µM"),
    ("CCCCCCCCCCCCCCCCCC(=O)OCC(CN(C)CCN(C)C)OC(=O)CCCCCCCCCCCCCCCCC (configuration not stated)", "> 100 µM"),
    ("C=C(C)C(=O)O[C@H]1CC2(CO)O[C@@H]2CC/C(COC(C)=O)=C/C2OC(=O)C(=C)[C@@H]21 (some centres not stated)", "> 100 µM"),
    ("CCCOC1OC(CS(=O)(=O)O)C(OC(C)=O)C(OC(C)=O)C1OC(C)=O (configuration not stated)", "> 100 µM"),
    ("O=C1NC(=S)NC(=O)C1=Cc1cc2c(cc1[N+](=O)[O-])OCO2", "> 100 µM"),
    ("CCCCCCCCCC(=O)CC(=O)c1ccc(O)cc1O", "> 100 µM"),
    ("Cc1ccc2c(c1)nc(C(=O)c1ccco1)c(C(F)(F)F)[n+]2[O-]", "> 100 µM"),
    ("Clc1ccc(-n2nnc(C3=NCCN3)c2-c2ccccc2)cc1", "> 100 µM"),
    ("Cc1c2oc3c(C)ccc(C(=O)NC4C(=O)NC(Cc5ccc(O)cc5)C(=O)N5CCCC5C(=O)N(C)CC(=O)N(C)C(C(C)C)C(=O)OC4C)c3nc-2c(C(=O)NC2C(=O)NC(Cc3ccc(O)cc3)C(=O)N3CCCC3C(=O)N(C)CC(=O)N(C)C(C(C)C)C(=O)OC2C)c(N)c1=O (configuration not stated) (I: TYP[Sar][NMeV] / II: TYP[Sar][NMeV]; ester I:1-I:C, II:1-II:C; linker I:N-II:N via Actinocin(9to1); configuration not given here)", "32.6 µM"),
    ("COc1ccc(/C=N/N=C(\\N)NO)c(OC)c1OC", "> 100 µM"),
]
